Each recorded value in this set is attributed to ChEMBL document CHEMBL2203185.

measurement target: Neuropeptide FF receptor 1 (Homo sapiens, UniProt Q9GZQ6)
Sequence (Q9GZQ6 whole entry): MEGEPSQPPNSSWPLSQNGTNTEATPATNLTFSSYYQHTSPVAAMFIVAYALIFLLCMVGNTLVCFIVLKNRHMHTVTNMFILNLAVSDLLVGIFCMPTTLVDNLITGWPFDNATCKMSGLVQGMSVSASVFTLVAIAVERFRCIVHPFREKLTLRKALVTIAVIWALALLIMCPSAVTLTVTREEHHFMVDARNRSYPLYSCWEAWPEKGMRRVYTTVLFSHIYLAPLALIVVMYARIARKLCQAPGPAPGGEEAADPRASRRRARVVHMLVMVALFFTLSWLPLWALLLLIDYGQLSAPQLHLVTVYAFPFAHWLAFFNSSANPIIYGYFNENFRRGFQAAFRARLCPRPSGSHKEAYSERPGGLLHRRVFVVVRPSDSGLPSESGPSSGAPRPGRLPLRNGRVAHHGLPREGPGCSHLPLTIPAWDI
test summary: Displacement of [3H]FFRF-NH2 from human flag-tagged NPFF1 receptor expressed in CHO cells at 5 uM by scintillation counting
Format: cell-based
Non-standard residues stand in square brackets, D forms with d. Residues, ends and D or L forms follow the SMILES beside them. Inp = O=C(O)C1CCNCC1
measured parameter: inhibition (%)

compound | measurement target | unit label | val
N=C(N)NCCC[C@H](NC(=O)c1ccc(C(=O)c2ccccc2)cc1)C(=O)N[C@@H](Cc1ccccc1)C(N)=O | Neuropeptide FF receptor 1 (Homo sapiens, UniProt Q9GZQ6) | % | 68
N=C(N)NCCC[C@H](NC(=O)Cc1ccc(Cl)cc1)C(=O)N[C@@H](Cc1ccccc1)C(N)=O | Neuropeptide FF receptor 1 (Homo sapiens, UniProt Q9GZQ6) | % | 100
N=C(N)NCCC[C@@H](NC(=O)Cc1ccccc1)C(=O)N[C@@H](Cc1ccccc1)C(N)=O | Neuropeptide FF receptor 1 (Homo sapiens, UniProt Q9GZQ6) | % | 87
N=C(N)NCCC[C@H](NC(=O)/C=C/c1ccccc1)C(=O)N[C@@H](Cc1ccccc1)C(N)=O | Neuropeptide FF receptor 1 (Homo sapiens, UniProt Q9GZQ6) | % | 58
N=C(N)NCCC[C@H](NC(=O)C1CCNCC1)C(=O)N[C@@H](Cc1ccccc1)C(N)=O (H-[Inp]-Arg-Phe-NH2) | Neuropeptide FF receptor 1 (Homo sapiens, UniProt Q9GZQ6) | % | 100
N=C(N)NCCC[C@@H](NC(=O)c1cccc(-c2ccccc2)c1)C(=O)N[C@H](Cc1ccccc1)C(N)=O | Neuropeptide FF receptor 1 (Homo sapiens, UniProt Q9GZQ6) | % | 88

I. COc1cccc(C(=O)N[C@@H](CCCNC(=N)N)C(=O)N[C@@H](Cc2ccccc2)C(N)=O)c1
II. N=C(N)NCCC[C@H](NC(=O)CCC(=O)O)C(=O)N[C@@H](Cc1ccccc1)C(N)=O
III. N=C(N)NCCC[C@H](NC(=O)c1ccc(Cl)cc1)C(=O)N[C@@H](Cc1ccccc1)C(N)=O
Rank items: key inhibition, increasing. Use the labels to give the ranking in the order requested.
II, III, I

1. N=C(N)NCCC[C@@H](NC(=O)c1ccccc1-c1ccccc1)C(=O)N[C@H](Cc1ccccc1)C(N)=O
2. N=C(N)NCCC[C@H](NC(=O)c1ccc(O)c(O)c1)C(=O)N[C@@H](Cc1ccccc1)C(N)=O
Field: entry with larger inhibition (options 1 / 2 ). Kindly give the label for the entry you pick.
1
(1: 92%, 2: 56%)

P. N=C(N)NCCC[C@H](NC(=O)c1c(Cl)cccc1Cl)C(=O)N[C@@H](Cc1ccccc1)C(N)=O
Q. COc1ccc(CC(=O)N[C@@H](CCCNC(=N)N)C(=O)N[C@@H](Cc2ccccc2)C(N)=O)cc1
Which value of inhibition is smaller, the one for P or the one for Q ? Kindly give the label for the entry you pick.
Q

---

measurement target: Neuropeptide FF receptor 2 (Homo sapiens, UniProt Q9Y5X5)
Sequence (Q9Y5X5 whole entry): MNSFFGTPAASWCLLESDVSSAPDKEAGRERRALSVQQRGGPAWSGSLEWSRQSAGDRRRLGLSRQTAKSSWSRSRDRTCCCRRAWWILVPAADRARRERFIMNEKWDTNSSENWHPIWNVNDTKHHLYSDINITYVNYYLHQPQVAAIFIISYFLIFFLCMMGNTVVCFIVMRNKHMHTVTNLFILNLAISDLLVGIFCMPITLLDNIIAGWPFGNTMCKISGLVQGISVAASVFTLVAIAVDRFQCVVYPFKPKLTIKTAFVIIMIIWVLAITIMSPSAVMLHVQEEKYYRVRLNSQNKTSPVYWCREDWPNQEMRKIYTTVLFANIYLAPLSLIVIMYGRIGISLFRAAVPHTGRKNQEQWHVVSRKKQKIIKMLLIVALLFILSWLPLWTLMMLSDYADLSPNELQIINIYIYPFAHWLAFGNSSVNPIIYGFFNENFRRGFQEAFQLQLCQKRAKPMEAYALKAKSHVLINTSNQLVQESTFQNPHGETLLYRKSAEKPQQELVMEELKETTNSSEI
test summary: Displacement of [3H]FFRF-NH2 from human flag-tagged NPFF2 receptor expressed in CHO cells at 500 nM by scintillation counting
Format: cell-based
measured parameter: inhibition (%)

Use the examples below as a reference point.
smiles input | inhibition, %
N=C(N)NCCC[C@@H](NC(=O)/C=C/c1ccccc1)C(=O)N[C@@H](Cc1ccccc1)C(N)=O | 18
N=C(N)NCCC[C@H](NC(=O)/C=C/c1cnc[nH]1)C(=O)N[C@@H](Cc1ccccc1)C(N)=O | 0
N=C(N)NCCC[C@H](NC(=O)c1ccc(Cl)c(Cl)c1)C(=O)N[C@@H](Cc1ccccc1)C(N)=O | 12
N=C(N)NCCC[C@@H](NC(=O)c1ccccc1-c1ccccc1)C(=O)N[C@@H](Cc1ccccc1)C(N)=O | 65
N=C(N)NCCC[C@@H](NC(=O)c1ccc(-c2ccccc2)cc1)C(=O)N[C@H](Cc1ccccc1)C(N)=O | 6

a. N=C(N)NCCC[C@H](NC(=O)CCN1c2ccccc2Sc2ccccc21)C(=O)N[C@@H](Cc1ccccc1)C(N)=O
b. N=C(N)NCCC[C@H](NC(=O)Cc1ccc(Cl)cc1)C(=O)N[C@@H](Cc1ccccc1)C(N)=O
Field: entry with larger inhibition (options a / b ). Kindly give the label for the entry you pick.
a
(a: 31%, b: 9%)
